Measured values drawn from ChEMBL document CHEMBL1201862 for this set.

target: Heat shock factor protein 1 (Mus musculus, UniProt P38532); assay: decrease of HSF1-responsive luciferase luminescence – cell-based, NIH3T3, dose retest, confirmation (AID 2382); format: functional;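 further: NIH3T3 fibroblasts with HSF1-driven luciferase reporter stressed by proteasome inhibitor MG132; luminescence from HSF1-driven luciferase expression after 8 hours of MG132 stress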
Sequence (P38532 whole entry): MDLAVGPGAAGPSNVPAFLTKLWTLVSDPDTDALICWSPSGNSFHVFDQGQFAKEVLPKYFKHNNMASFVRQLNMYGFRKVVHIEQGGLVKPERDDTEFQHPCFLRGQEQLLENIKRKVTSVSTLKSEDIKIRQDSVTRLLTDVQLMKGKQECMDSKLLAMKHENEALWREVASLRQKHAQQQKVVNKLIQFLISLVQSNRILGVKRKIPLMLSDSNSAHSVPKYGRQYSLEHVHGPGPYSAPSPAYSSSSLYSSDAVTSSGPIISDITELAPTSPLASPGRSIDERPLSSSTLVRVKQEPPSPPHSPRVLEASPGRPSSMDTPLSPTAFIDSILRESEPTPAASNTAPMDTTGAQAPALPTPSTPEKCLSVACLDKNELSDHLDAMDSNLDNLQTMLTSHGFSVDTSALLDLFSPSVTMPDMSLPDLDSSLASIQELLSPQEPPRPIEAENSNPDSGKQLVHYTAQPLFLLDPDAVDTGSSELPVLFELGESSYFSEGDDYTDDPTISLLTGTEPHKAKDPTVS
Active and inactive are the calls of the source.
REPORTED ENDPOINT: EC50

Output EC50 of Cn1c(=O)c([N+](=O)[O-])c(Cl)c2ccccc21 4.3 µM (active)

Output EC50 of COc1ccc(/N=C/C2=C(O)c3ccccc3C2=O)c(OC)c1 2.42 µM (active)

Output EC50 of CCCCn1c(=O)n(CC(=O)Nc2c(CC)cccc2CC)c(=O)c2c1nc(CO)n2CCC > 195 µM (not active)

Output EC50 of COc1ccc(N2C(=O)C(C)(C)C2c2c(O)ccc3ccccc23)cc1 (stereo not given) > 195 µM (not active)

Output EC50 of CCOC(=O)CSc1nnc(-c2ccccc2)c(-c2ccccc2)n1 > 195 µM (not active)

Output EC50 of Cc1ccc(S(=O)(=O)NC(=NCc2ccccc2)c2ccc(F)cc2)cc1 > 195 µM (not active)

Output EC50 of c1ccc(-c2cn3nc(-c4ccccc4)sc3n2)cc1 < 0.16 µM (active)

Output EC50 of Cc1ccc(S(=O)(=O)N2CCN(C(=O)c3c(-c4ccccc4)noc3C)CC2)c(C)c1 > 195 µM (not active)

Output EC50 of CCCCNC(=O)CN=C(S)N(Cc1ccccc1)Cc1cccs1 > 195 µM (not active)

Output EC50 of O=C1C2CCCN2c2ccc(S(=O)(=O)N3CCOCC3)cc2N1Cc1cccc(C(F)(F)F)c1 (stereo not given) > 195 µM (not active)

----------
biological target: UniProt P30556; assay: antagonism of angiotensin II type 1 receptor – cell-based, uHTS hits, selectivity assay for APJ receptor antagonist project, dose response (AID 463214); assay type: functional;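 further: antagonist potency against angiotensin II stimulated AT1 response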
Sequence (P30556 whole entry): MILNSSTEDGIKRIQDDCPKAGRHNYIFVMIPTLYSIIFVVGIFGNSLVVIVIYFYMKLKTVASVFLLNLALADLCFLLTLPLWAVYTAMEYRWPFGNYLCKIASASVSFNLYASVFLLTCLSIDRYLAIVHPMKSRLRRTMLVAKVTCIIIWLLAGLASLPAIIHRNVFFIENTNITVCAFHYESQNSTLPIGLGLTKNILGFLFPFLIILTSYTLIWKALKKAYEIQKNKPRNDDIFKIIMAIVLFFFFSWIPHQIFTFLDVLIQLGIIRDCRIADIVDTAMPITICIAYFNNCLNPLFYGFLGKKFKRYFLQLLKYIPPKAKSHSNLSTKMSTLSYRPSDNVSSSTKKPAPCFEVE
Active and inactive are the calls of the source.
REPORTED ENDPOINT: IC50

Output IC50 of COc1ccc(N=C2C(=O)Nc3ccc(C)c(Br)c32)cc1 3.94 µM (active)

Output IC50 of O=C(C[N+]1(CC#Cc2ccccc2)CCOCC1)c1ccc(Cl)cc1 39.4 µM (not active)

Output IC50 of Cc1ccc(/N=C2\C(=O)Nc3ccccc32)cc1 > 40 µM (not active)

Output IC50 of O=C(CNc1cccc(Cl)c1)c1ccc(Cl)cc1 5.07 µM (active)

----------
# AC50 measurements, system: Cytochrome P450 1A2 (Homo sapiens, UniProt P05177);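 further: PubChem cytochrome P450 panel assay, CYP1A2 panel member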
# Sequence (P05177 whole entry): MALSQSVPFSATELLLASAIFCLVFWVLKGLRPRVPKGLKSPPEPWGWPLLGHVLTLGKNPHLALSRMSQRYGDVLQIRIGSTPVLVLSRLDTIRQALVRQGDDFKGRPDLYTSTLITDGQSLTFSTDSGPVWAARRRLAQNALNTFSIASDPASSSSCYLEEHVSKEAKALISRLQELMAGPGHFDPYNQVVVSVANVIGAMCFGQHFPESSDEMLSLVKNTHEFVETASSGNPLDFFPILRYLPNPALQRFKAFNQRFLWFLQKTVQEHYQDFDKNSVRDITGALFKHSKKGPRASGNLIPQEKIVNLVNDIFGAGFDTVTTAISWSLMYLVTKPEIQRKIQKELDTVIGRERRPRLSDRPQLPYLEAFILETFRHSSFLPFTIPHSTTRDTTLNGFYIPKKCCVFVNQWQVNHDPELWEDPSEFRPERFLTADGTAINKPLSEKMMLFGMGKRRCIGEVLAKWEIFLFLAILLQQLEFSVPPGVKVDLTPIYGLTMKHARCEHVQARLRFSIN

Output AC50 of Cn1c(CNC(=O)Nc2ccccc2)nnc1SCc1ccccc1 25.1 µM (inconclusive)

Output AC50 of CC(C)Oc1cc(-n2c(=S)[nH]c3ccccc3c2=O)c(Cl)cc1Cl 12.6 µM (inconclusive)

Output AC50 of O=C(Nc1cc2c(oc1=O)CCCC2=O)c1ccc(Cl)cc1 14.1 µM (inconclusive)

Output AC50 of Cc1ccc(CS(=O)(=O)CCC(=O)NCc2cccs2)cc1 15.8 µM (inconclusive)

Output AC50 of COC(=O)CSC(C(=O)Nc1ccc(C)c(C)c1)c1ccccc1 (stereo unspecified) 8.91 µM (inconclusive)

Output AC50 of O=C(CN1CCN(S(=O)(=O)c2ccc(Cl)cc2)CC1)Nc1ccc2c(c1)OCO2 15.8 µM (inconclusive)

Output AC50 of Fc1ccccc1OCCCCCCN1CCCC1 17.8 µM (inconclusive)

Output AC50 of Cn1c(=O)c(CCc2ccccc2)nc2cnc(Nc3ccccc3)nc21 1.26 µM (inconclusive)

Output AC50 of CC(C)c1nc2oc3ccccc3c(=O)c2c(=O)n1-c1ccccc1 39.8 µM (inconclusive)

Output AC50 of Cc1ccc(/C=C/c2nnc(-c3ccc(C)cc3)o2)cc1 4.47 µM (inconclusive)

Output AC50 of COC(=O)C(NC(=O)c1ccc(Cl)cc1)(Nc1nc(C)cs1)C(F)(F)F (stereo unspecified) 28.2 µM (inconclusive)

----------
target: Cytochrome P450 2C19 (Homo sapiens, UniProt P33261); assay: Cytochrome panel assay with activity outcomes. Panel member name: p450-cyp2c19 Compounds with AC50 equal or less than 10 uM are considered active; format: functional; conditions: read-out: AC50
Sequence (P33261 whole entry): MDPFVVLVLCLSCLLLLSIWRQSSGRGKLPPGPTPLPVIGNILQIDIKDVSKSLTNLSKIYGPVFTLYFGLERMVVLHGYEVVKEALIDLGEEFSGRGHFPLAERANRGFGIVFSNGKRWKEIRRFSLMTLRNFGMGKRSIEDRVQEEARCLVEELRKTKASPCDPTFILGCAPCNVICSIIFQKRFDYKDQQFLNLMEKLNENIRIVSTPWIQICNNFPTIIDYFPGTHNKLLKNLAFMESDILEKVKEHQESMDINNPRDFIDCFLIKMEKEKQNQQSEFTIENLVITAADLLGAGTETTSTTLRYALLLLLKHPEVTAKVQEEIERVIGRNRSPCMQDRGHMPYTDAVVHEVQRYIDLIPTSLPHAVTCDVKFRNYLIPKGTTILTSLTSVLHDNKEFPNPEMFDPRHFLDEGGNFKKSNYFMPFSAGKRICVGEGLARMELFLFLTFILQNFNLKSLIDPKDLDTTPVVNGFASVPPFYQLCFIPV
REPORTED ENDPOINT: AC50

Output AC50 of CCOC(=O)c1[nH]c2cc3c(cc2c1NC(=O)CN1CCc2ccccc2C1)OCO3 2.24 µM (inconclusive)

Output AC50 of CCN(CCO)Cc1csc2cccc(Br)c12 22.4 µM (inconclusive)

Output AC50 of Fc1ccccc1OCCCCCCN1CCCC1 39.8 µM (inconclusive)

Output AC50 of Cc1nn(-c2ccccc2)c(-c2ccccc2)c1C(=O)O 5.01 µM (inconclusive)

Output AC50 of O=C1C2CCCN2c2ccc(S(=O)(=O)N3CCOCC3)cc2N1Cc1cccc(C(F)(F)F)c1 (stereo not given) 3.55 µM (inconclusive)

----------
target: FAD-linked sulfhydryl oxidase ALR (Homo sapiens, UniProt P55789); assay: ALR-catalysed DTT oxidation blockers – biochemical, H2O2 detection, luminescence, cherry-pick, dose response (AID 493248)
Sequence (P55789 whole entry): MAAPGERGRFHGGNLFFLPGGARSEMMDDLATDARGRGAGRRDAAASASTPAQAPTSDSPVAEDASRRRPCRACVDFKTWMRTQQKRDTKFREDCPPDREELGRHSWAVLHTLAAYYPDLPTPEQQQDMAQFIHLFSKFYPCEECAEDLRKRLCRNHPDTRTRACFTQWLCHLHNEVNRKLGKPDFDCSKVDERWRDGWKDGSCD
Activity calls are given as the source filed them.
REPORTED ENDPOINT: AC50

Output AC50 of Cn1sc(NC(=O)c2ccc(Cl)cc2)nc1=O 1.88 µM (active)

Output AC50 of CC(=O)Nc1ccc(S(=O)(=O)Nc2ccc(N3CCCCC3)cc2)cc1 2.07 µM (active)

Output AC50 of N#C/C(=N\Nc1ccc(Cl)cc1)C(N)=S 7.86 µM (active)
